The measurements presented in this section are drawn from patent US12077503B2.

System: giant foxtail (Setaria faberii)
ASSAY EXPLANATION: Test A preemergence
Format: in vivo
CONDITION DETAILS: Setaria faberi, pre-emergence, 240 h, 125 g ai/ha, Preemergence, visual injury rating after approximately 10 d; read-out: Foxtail, Giant plant response rating (0 to 100 scale, 0 is no effect, 100 is complete control)
This listing pairs compounds with measured pest or weed control at 125 g/ha.
Provide the reading as a plain figure in %.

Study these solved cases before continuing.
q: Query for giant foxtail (Setaria faberii): what pest or weed control at 125 g/ha does the record show for Cc1ccc([C@H]2CN(C)C(=O)[C@@H]2C(=O)Nc2ccccc2[S+](C)[O-])cc1F (single isomer, unassigned) [Compound 987] ?
a: 90

q: Can you check CC(C)COc1cccc([C@H]2CNC(=O)[C@@H]2C(=O)Nc2cccc(F)c2F)c1 [Compound 965] next?
a: 90

q: Can you check CN1C[C@H](c2cc(C(F)(F)F)cs2)[C@@H](C(=O)Nc2ccccc2F)C1=O [Compound 962] next?
a: 90

q: Can you check CN1C[C@H](c2cc(F)cc(F)c2)[C@@H](C(=O)Nc2ccc(C(F)(F)F)cc2)C1=O [Compound 968] next?
a: 30

q: Can you check O=C(Nc1cccc(F)c1F)[C@H]1C(=S)NC[C@@H]1c1ccc(C(F)(F)F)cc1 (racemic) [Compound 1048] next?
a: 90

Further cases:
q: Query for giant foxtail (Setaria faberii): what pest or weed control at 125 g/ha does the record show for Cc1ccc([C@H]2CN(C)C(=O)[C@@H]2C(=O)Nc2ccccc2F)cc1C [Compound 1038] ?
a: 100

q: Can you check CN1C[C@H](c2cccc(C(F)(F)F)c2)[C@@H](C(=O)Nc2cnccc2C(F)(F)F)C1=O [Compound 1066] next?
a: 100
